Data origin, for the record: patent US10301294B2

test system: replicating M. tuberculosis H37Rv; test: microbe, parasite or virus in culture; type: cell-based; conditions: Mycobacterium tuberculosis, H37RV, None = inhibition did not reach 90%, read-out: Against Replicating Mtb IC90 (uM, GFP)
IC90 for assorted compounds

- Compound: "[N-]=[N+]=NCCOCCNC(=O)CCCOc1ccc(CSc2nnc(-c3ccc(Cl)cc3)o2)nc1 [drawing 237]"
  Recorded Measurement: "62 µM"
- Compound: "Fc1ccc(-c2nnc(SCc3ccccn3)o2)cc1 [drawing 215]"
  Recorded Measurement: "31 µM"
- Compound: "COCCOc1nnc(-c2ccc(Cl)cc2)o1"
  Recorded Measurement: "> 500 µM"
- Compound: "COCCSc1nnc(-c2ccc(C)cc2)o1"
  Recorded Measurement: "31 µM"
- Compound: "Fc1ccc(-c2nnc(SCCN3CCN(c4ccccc4)CC3)o2)cc1"
  Recorded Measurement: "250 µM"

Form entry - test system: replicating M. tuberculosis H37Rv; read-out: IC90; compound: c1ccc(-c2nnc(SCc3cccnc3)o2)cc1 [drawing 178]
125 µM

Can you handle O=C(CSc1nnc(-c2ccccc2)o1)c1ccc(Br)cc1 next?
> 500 µM

Can you handle c1ccc(-c2nnc(OCc3ccccn3)o2)cc1 next?
> 500 µM

Can you handle c1ccc(CSc2nnc(-c3cccnc3)o2)nc1 next?
> 500 µM

Can you handle Fc1ccc(-c2nnc(SCCN3CCCC(F)(F)C3)o2)cc1 next?
250 µM

Can you handle COC(=O)CCCOc1ccc(-c2nnc(SCc3ccccn3)o2)cc1 next?
500 µM

Can you handle COc1ccc(CSc2nnc(-c3ccc(F)cc3)o2)nc1 next?
16 to 31 µM

Can you handle C#CCSc1nnc(-c2ccc(Cl)cc2)o1 next?
31 µM

Can you handle c1cncc(-c2nnc(SCCC3OCCCO3)o2)c1 next?
> 500 µM

----------
system: carbon-starved M. tuberculosis H37Rv; assay: Non-replicating IC90 determination by luciferase (carbon-starved cells); format: cell-based; conditions: Mycobacterium tuberculosis, H37RV, 120 h; luciferase; None = inhibition did not reach 99%; read-out: Against carbon starved non-replicating Mtb IC99 (uM, luciferase)
Parameter Measured: IC99 (µM)
Write the number in µM without appending the unit.

# IC99 lookup, item Fc1ccc(-c2nnc(SCCN3CCCC(F)(F)C3)o2)cc1
250

Can you handle c1ccc(CSc2nnc(-c3cccnc3)o2)nc1 next?
250

Can you handle Clc1ccc(-c2nnc(SCCC3OCCCO3)o2)cc1 next?
8

Can you handle COCCSc1nnc(-c2ccc(Cl)cc2)o1 next?
16

Can you handle CCSc1nnc(-c2ccccc2)o1 next?
250

----------
system: replicating M. tuberculosis H37Rv; experiment: microbe, parasite or virus in culture; type: cell-based; conditions: Mycobacterium tuberculosis, H37RV, three independent experiments in triplicate, read-out: TB Growth Inhibition Activity, IC90 Replicating_logarithmic (converted)
Parameter Measured: IC90

- Molecule: "Fc1ccc(Cn2cc(CSc3nnc(C4CCC4)o3)nn2)cc1"
  IC90: "> 62 µM"
- Molecule: "Fc1ccc(-c2nnc(SCc3cn(Cc4ccccc4)nn3)o2)cc1"
  IC90: "> 62 µM"
- Molecule: "Clc1ccc(-c2nnc(SCc3cn(-c4ccccc4)nn3)o2)cc1 [drawing 164]"
  IC90: "> 62 µM"

# IC90 lookup, item Clc1ccc(-c2nnc(SCc3cn(Cc4ccccc4)nn3)o2)cc1 [drawing 156]
> 62 µM

----------
IC99 for assorted compounds
system: carbon-starved M. tuberculosis H37Rv; test: Non-replicating IC90 determination by luciferase (carbon-starved cells); format: cell-based; settings: Mycobacterium tuberculosis, H37RV, 120 h; luciferase; None = inhibition did not reach 99%; read-out: Against carbon starved non-replicating Mtb IC99 (uM, luciferase)
Write the number in µM without appending the unit.

// worked examples, IC99 included
- Compound: "COCCS(=O)(=O)c1nnc(-c2ccc(C)cc2)o1"
  Unit String: "µM"
  IC99: 8
- Compound: "CS(=O)(=O)c1nnc(-c2ccc(Cl)cc2)o1"
  Unit String: "µM"
  IC99: 8
- Compound: "Cc1ccc(-c2nnc([S+]([O-])Cc3cccc[n+]3[O-])o2)cc1 (stereo not shown)"
  Unit String: "µM"
  IC99: 62
- Compound: "[N-]=[N+]=NCCOCCNC(=O)c1ccc(C[S+]([O-])c2nnc(-c3ccc(Cl)cc3)o2)nc1 (stereo not shown)"
  Unit String: "µM"
  IC99: 62
- Compound: "c1ccc(-c2nnc(SCc3ccncc3)o2)cc1 [drawing 179]"
  Unit String: "µM"
  IC99: 500

# IC99 lookup, item [N-]=[N+]=NCCOCCNC(=O)CCCn1cc(C[S+]([O-])c2nnc(-c3ccc(F)cc3)o2)nn1 (stereo not shown)
500

Can you handle OCC#CCSc1nnc(-c2ccc(Cl)cc2)o1 next?
8

Can you handle c1ccc(-c2nnc(SCCC3OCCCO3)o2)cc1 [drawing 168] next?
62

Can you handle c1ccc(-c2nnc(SCc3cccnc3)o2)cc1 [drawing 178] next?
250

Can you handle Oc1ccc(-c2nnc(SCc3ccccn3)o2)cc1 next?
62

Can you handle [O-][n+]1ccccc1CSc1nnc(-c2ccccc2)o1 [drawing 194] next?
125

Can you handle COCCOc1nnc(-c2ccc(Cl)cc2)o1 next?
250

Can you handle [O-][S+](Cc1cn(Cc2ccccc2)nn1)c1nnc(-c2ccc(Cl)cc2)o1 (stereo not shown) [drawing 223] next?
8

Can you handle c1ccc(-c2nnc(SC3CCCCC3)o2)cc1 [drawing 181] next?
62

Can you handle CCOC(=O)COc1ccc(-c2nnc(SCc3ccccn3)o2)cc1 next?
31

Can you handle Cc1ccc(-c2nnc(SCc3ccccn3)o2)cc1 next?
16

Can you handle CS(=O)(=O)c1nnc(-c2ccccc2)o1 next?
62

Can you handle C#CCCCOc1ccc(CSc2nnc(-c3ccc(F)cc3)o2)nc1 next?
16

----------
tested on: carbon-starved M. tuberculosis H37Rv; assay: Non-replicating IC90 determination by luciferase (carbon-starved cells); format: cell-based; settings: Mycobacterium tuberculosis, H37RV, 120 h; luciferase; None = inhibition did not reach 99%; read-out: Against carbon starved non-replicating Mtb IC99 (uM, luciferase)
IC99 for assorted compounds
Write the number in µM without appending the unit.

// worked examples, IC99 included
- Compound: "COc1cc(-c2nnc(SCc3ccccn3)o2)ccc1F"
  IC99 [µM]: 16
- Compound: "COCCSc1nnc(-c2ccccc2)o1 [drawing 175]"
  IC99 [µM]: 16
- Compound: "[N-]=[N+]=NOCCNC(=O)CCCOc1ccc(-c2nnc([S+]([O-])Cc3ccccn3)o2)cc1 (stereo not shown)"
  IC99 [µM]: 62
- Compound: "COc1ccc(CSc2nnc(-c3ccc(Cl)cc3)o2)nc1 [drawing 228]"
  IC99 [µM]: 8
- Compound: "CC(C)(C)c1ccc(CSc2nnc(-c3ccc(Cl)cc3)o2)cc1"
  IC99 [µM]: 62

# IC99 lookup, item [O-][S+](Cc1ccccn1)c1nnc(-c2ccc(Cl)cc2)o1 (stereo not shown) [drawing 195]
4

Can you handle Clc1ccc(-c2nnc(SCc3cn(Cc4ccccc4)nn3)o2)cc1 [drawing 224] next?
16

Can you handle CN1CCCCC1COc1nnc(-c2ccc(Cl)cc2)o1 (stereo not shown) next?
500

Can you handle COC(=O)CCCOc1ccc(CSc2nnc(-c3ccc(F)cc3)o2)nc1 next?
31

Can you handle [N-]=[N+]=NCCCOc1ccc(CSc2nnc(-c3ccc(F)cc3)o2)nc1 next?
16

Can you handle Clc1ccc(-c2nnc(NCc3ccccn3)o2)cc1 next?
125

Can you handle COc1ccc(-c2nnc(SCc3ccccn3)o2)cc1 next?
16

----------
tested on: carbon-starved M. tuberculosis H37Rv; assay: Non-replicating IC90 determination by luciferase (carbon-starved cells); type: cell-based; settings: Mycobacterium tuberculosis, H37RV, 120 h; luciferase; None = inhibition did not reach 99%; read-out: Against carbon starved non-replicating Mtb IC99 (uM, luciferase)
IC99 for assorted compounds
Form field: result (number plus unit)

// worked examples, IC99 included
- Smiles Entry: "Fc1ccc(CSc2nnc(-c3cccnc3)o2)cc1"
  IC99: "62 µM"
- Smiles Entry: "Clc1ccc(-c2nnc(OCc3ccccn3)o2)cc1"
  IC99: "250 µM"
- Smiles Entry: "c1ccc(CSc2nnc(-c3ccncc3)o2)nc1"
  IC99: "500 µM"

Form entry - test system: carbon-starved M. tuberculosis H37Rv; read-out: IC99; compound: C#CCCCOc1cc(-c2nnc(SCc3ccccn3)o2)ccc1OC
16 µM
